target: Vascular endothelial growth factor receptor 2 (Homo sapiens); type: cell-based, U-251;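 note: human U251 cells, compound preincubated 60 min before VEGF stimulation, VEGF-induced VEGFR2 tyrosine phosphorylation measured by ELISA after 10 min, value is concentration inhibiting this phosphorylation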
Sequence (P35968 whole entry): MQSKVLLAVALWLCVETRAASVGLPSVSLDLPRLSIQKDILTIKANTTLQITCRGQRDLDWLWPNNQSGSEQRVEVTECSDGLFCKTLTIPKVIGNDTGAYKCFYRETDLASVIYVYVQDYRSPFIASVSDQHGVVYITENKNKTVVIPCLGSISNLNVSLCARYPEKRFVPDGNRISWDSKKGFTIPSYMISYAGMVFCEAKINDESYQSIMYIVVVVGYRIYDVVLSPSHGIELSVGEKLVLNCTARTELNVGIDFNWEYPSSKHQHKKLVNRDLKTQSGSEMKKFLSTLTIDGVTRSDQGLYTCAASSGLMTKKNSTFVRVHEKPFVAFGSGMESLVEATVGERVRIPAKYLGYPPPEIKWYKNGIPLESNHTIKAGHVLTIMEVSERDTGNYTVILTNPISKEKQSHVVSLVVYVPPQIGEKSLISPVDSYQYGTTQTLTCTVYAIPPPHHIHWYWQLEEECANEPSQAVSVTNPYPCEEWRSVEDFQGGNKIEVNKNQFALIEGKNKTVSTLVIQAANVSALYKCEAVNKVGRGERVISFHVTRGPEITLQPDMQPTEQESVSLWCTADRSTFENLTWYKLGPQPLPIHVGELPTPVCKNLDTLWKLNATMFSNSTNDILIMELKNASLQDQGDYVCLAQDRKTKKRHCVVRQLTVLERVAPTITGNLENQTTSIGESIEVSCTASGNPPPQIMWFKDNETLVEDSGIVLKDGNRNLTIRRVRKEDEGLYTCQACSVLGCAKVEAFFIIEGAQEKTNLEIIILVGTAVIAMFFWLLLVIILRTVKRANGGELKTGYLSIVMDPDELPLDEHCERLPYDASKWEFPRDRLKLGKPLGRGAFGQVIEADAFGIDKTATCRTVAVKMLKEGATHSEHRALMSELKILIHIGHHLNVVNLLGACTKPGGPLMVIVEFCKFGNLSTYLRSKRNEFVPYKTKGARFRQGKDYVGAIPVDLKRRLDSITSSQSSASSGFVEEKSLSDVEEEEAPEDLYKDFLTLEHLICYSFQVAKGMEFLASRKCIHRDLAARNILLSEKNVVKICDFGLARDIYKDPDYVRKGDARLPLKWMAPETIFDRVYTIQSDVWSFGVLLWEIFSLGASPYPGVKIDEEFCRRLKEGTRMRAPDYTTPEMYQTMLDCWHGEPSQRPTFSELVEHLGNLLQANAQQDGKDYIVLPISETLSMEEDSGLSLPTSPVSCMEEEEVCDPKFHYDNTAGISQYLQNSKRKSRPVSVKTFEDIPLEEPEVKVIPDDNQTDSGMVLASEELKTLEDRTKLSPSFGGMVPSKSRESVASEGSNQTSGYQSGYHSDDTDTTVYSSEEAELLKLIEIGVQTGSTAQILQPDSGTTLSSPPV
MEASURED METRIC: IC50 (µM)
Reply numerically in µM, unit not repeated.

Before answering, review these 10 worked examples.
CC(C)(C)C(=O)Nc1nc(Nc2ccc(Cl)cc2F)c2c(n1)[nH]c1cccc(Cl)c12 : 89.1
CC(C)c1ccc(Nc2nc(NC(=O)C(C)(C)C)nc3[nH]c4cccc(Cl)c4c23)cc1 : 47.8
Nc1nc(Nc2ccc(Cl)cc2)c2c(n1)[nH]c1cccc(Cl)c12 : 13.2
COc1cccc(Nc2nc(N)nc3[nH]c4cccc(Cl)c4c23)c1 : 70.1
Nc1nc(Nc2ccccc2)c2c(n1)[nH]c1cccc(Cl)c12 : 124
CC(C)c1ccc(Nc2nc(N)nc3[nH]c4cccc(Cl)c4c23)cc1 : 30.3
CC(C)(C)C(=O)Nc1nc(Nc2cccc(F)c2)c2c(n1)[nH]c1cccc(Cl)c12 : 31.2
CC(C)(C)C(=O)Nc1nc(Nc2ccc(Cl)cc2)c2c(n1)[nH]c1cccc(Cl)c12 : 21.3
Nc1nc(Nc2cccc(F)c2)c2c(n1)[nH]c1cccc(Cl)c12 : 86.1
COc1cccc(Nc2nc(NC(=O)C(C)(C)C)nc3[nH]c4cccc(Cl)c4c23)c1 : 41

Field: next compound
Query: Please look up its IC50: CC(C)(C)C(=O)Nc1nc(Nc2ccccc2)c2c(n1)[nH]c1cccc(Cl)c12
Result: 192

* * *

Consider the following compounds and their measured IC50 readings.
molecular target: Platelet-derived growth factor receptor beta (Homo sapiens, UniProt P09619); experiment: Inhibition of PDGFRbeta in human SF539 cells assessed as inhibition of […] tyrosine phosphorylation incubated for 60 mins prior to PDGF-BB-activation measured 10 mins by ELISA
Sequence (P09619 whole entry): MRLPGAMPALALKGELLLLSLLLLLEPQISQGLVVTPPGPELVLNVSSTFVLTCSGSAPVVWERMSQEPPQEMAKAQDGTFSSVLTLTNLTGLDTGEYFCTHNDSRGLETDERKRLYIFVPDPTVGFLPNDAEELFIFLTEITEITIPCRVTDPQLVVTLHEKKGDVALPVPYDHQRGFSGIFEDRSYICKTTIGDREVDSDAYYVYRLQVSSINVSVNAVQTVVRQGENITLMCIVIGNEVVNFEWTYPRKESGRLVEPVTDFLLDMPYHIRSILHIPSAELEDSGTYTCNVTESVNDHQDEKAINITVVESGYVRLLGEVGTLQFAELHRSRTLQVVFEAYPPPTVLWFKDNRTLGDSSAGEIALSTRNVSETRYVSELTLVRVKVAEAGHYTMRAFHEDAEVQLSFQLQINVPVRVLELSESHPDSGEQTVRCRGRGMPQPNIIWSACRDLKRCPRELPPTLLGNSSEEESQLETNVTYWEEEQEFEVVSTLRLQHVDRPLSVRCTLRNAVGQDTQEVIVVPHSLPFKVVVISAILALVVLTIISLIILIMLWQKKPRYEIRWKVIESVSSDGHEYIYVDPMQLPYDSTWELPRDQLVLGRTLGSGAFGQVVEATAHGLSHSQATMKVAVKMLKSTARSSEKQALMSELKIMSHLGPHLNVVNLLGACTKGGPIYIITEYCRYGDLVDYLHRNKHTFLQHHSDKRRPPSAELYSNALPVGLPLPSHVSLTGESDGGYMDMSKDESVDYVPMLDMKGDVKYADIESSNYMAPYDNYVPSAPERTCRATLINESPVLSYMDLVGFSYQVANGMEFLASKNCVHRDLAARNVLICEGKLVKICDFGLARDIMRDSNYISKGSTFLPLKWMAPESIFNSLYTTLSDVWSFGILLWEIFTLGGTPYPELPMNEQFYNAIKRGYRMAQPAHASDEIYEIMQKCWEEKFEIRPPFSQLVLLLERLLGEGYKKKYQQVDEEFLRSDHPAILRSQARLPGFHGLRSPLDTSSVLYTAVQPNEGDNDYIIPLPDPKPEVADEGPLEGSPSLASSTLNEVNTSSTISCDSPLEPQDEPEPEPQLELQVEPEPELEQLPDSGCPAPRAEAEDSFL
Reply numerically in µM, unit not repeated.

Query: Please look up its IC50: CC(C)(C)C(=O)Nc1nc(Nc2ccc(Cl)cc2F)c2c(n1)[nH]c1cccc(Cl)c12
Result: 171

Query: Please look up its IC50: Nc1nc(Nc2ccc(Cl)cc2)c2c(n1)[nH]c1cccc(Cl)c12
Result: 196

Query: Please look up its IC50: COc1cccc(Nc2nc(N)nc3[nH]c4cccc(Cl)c4c23)c1
Result: 50.5

Query: Please look up its IC50: CC(C)(C)C(=O)Nc1nc(Nc2ccccc2)c2c(n1)[nH]c1cccc(Cl)c12
Result: 70.6

Query: Please look up its IC50: Nc1nc(Nc2cccc(F)c2)c2c(n1)[nH]c1cccc(Cl)c12
Result: 172

Query: Please look up its IC50: COc1cccc(Nc2nc(NC(=O)C(C)(C)C)nc3[nH]c4cccc(Cl)c4c23)c1
Result: 196

* * *

molecular target: Epidermal growth factor receptor (Homo sapiens);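 note: human A431 cells pretreated 60 min before EGF stimulation, EGF-induced tyrosine phosphorylation read by ELISA after 10 min of activation, lower signal meaning inhibition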
Sequence (P00533 whole entry): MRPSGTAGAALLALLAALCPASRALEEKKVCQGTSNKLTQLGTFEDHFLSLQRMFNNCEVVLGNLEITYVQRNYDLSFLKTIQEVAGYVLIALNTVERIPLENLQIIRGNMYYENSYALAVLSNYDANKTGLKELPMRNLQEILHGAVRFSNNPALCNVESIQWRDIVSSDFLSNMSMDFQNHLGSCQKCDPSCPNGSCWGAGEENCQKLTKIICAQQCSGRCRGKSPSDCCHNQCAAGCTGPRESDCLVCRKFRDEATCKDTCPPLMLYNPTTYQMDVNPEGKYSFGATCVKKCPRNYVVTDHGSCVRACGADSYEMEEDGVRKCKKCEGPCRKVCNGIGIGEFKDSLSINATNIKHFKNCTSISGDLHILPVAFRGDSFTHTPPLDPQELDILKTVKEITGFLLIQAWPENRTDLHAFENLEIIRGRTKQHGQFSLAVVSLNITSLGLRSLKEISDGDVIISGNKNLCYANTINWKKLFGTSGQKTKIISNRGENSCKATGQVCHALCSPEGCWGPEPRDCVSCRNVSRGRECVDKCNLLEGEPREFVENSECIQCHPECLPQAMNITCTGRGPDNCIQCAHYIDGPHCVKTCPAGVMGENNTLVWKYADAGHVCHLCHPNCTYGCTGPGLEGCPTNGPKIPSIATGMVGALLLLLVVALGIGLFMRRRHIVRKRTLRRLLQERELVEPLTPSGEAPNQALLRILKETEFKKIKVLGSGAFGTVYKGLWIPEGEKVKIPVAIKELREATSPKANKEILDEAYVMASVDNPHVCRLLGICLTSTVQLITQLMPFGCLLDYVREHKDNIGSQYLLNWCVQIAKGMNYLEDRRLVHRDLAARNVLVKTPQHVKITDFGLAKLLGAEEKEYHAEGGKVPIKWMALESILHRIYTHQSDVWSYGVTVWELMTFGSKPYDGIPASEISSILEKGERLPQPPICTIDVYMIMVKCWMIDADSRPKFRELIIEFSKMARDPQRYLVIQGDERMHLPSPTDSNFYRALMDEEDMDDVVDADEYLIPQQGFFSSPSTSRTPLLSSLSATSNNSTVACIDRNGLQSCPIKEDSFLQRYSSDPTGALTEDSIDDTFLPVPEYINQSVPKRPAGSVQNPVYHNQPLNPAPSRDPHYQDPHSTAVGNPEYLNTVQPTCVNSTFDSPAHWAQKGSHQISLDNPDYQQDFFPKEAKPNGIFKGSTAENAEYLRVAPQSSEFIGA
pIC50: −log10 of the molar value.
Cut-off 4 on pIC50, inclusive. At or above means True; below means False.

Nc1nc(Nc2ccc(Cl)cc2)c2c(n1)[nH]c1cccc(Cl)c12 : True
COc1cccc(Nc2nc(NC(=O)C(C)(C)C)nc3[nH]c4cccc(Cl)c4c23)c1 : False
CC(C)(C)C(=O)Nc1nc(Nc2ccc(Cl)cc2)c2c(n1)[nH]c1cccc(Cl)c12 : True

Query: State whether the measured pIC50 reaches 4, counting equality as reaching it, for Nc1nc(Nc2ccccc2)c2c(n1)[nH]c1cccc(Cl)c12
Result: False

Query: State whether the measured pIC50 reaches 4, counting equality as reaching it, for CC(C)c1ccc(Nc2nc(NC(=O)C(C)(C)C)nc3[nH]c4cccc(Cl)c4c23)cc1
Result: True

Query: State whether the measured pIC50 reaches 4, counting equality as reaching it, for CC(C)(C)C(=O)Nc1nc(Nc2ccc(Cl)cc2F)c2c(n1)[nH]c1cccc(Cl)c12
Result: False

Query: State whether the measured pIC50 reaches 4, counting equality as reaching it, for Nc1nc(Nc2cccc(F)c2)c2c(n1)[nH]c1cccc(Cl)c12
Result: False

Query: State whether the measured pIC50 reaches 4, counting equality as reaching it, for CC(C)(C)C(=O)Nc1nc(Nc2cccc(F)c2)c2c(n1)[nH]c1cccc(Cl)c12
Result: True
